Provenance of the data: ChEMBL document CHEMBL2396551

Target: Adrenergic receptor alpha-1 (Rattus norvegicus, UniProt P15823+P23944+P43140)
Test: Antagonist activity at alpha1-adrenergic receptor in Wistar rat endothelium denuded thoracic aorta assessed as inhibition of phenylephrine-induced contraction preincubated for 30 mins prior to phenylephrine-challenge
Type: tissue-based

| Smiles structure | pA2 |
| --- | --- |
| CCCCn1c(CNc2cccc(C(=O)O)c2)nc2cc(OC)c(OC)cc2c1=O | 7.45 |
| CCN1CCN(c2nc(N)c3cc(OC)c(OC)cc3n2)CC1 | 10.41 |
| COc1cc2nc(CNc3ccccc3)nc(N)c2cc1OC | 9.87 |
| COc1cc2nc(CN3CCN(c4ccccc4C#N)CC3)nc(N)c2cc1OC | 10.1 |
| COC(=O)c1ccc(NCc2nc(N)c3cc(OC)c(OC)cc3n2)cc1 | 6.86 |
